Value source: PubChem BioAssay AID1458

Assay: qHTS Assay for Enhancers of SMN2 Splice Variant Expression; note: nearly all actives have a fitted effect of over 55% in size
Conditions: HEK293 SMN2-luciferase splicing reporter, luminescence, 30-36 h; series mostly up to 46.1 µM
The campaign covered roughly 210,000 compounds. About 5,900 (2.8%) were called active. Inconclusive results (about 5%) are left out. Calls come from the whole dose curve; as a rule, active = well fitted activation curve with a large enough effect; inconclusive = small, poorly fitted or top-dose-only effect; inactive = no such curve, though single readings can be large or run the other way. This excerpt belongs to a sample that is enriched for actives.
# valid calls are 1.0 = active, 0.0 = inactive; nothing else

-- ask How was COc1cc(/C=C2/C(=O)ON=C2C)ccc1OCc1ccccc1F classified in this test?
-- reply 0.0

-- ask Entry COc1cc(/C=C2/C(=O)ON=C2C)ccc1OCc1cccc(F)c1 please
-- reply 1.0

-- ask Can you handle COCCNC(=O)CSc1nc(-c2ccccc2)[nH]c1-c1ccc(C)cc1 next?
-- reply 0.0

-- ask Note, next up: C/C=C/c1ccc(OCCOc2ccc(C=O)cc2OC)c(OC)c1
-- reply 0.0

-- ask Same thing, different compound: CCC(=O)Nc1cccc(NC(=O)c2cccnc2)c1
-- reply 0.0

-- ask And then Cc1cc2nc(-c3ccc(NC(=O)c4cccnc4)cc3)oc2cc1C , what is it?
-- reply 1.0

----------
Assay: qHTS Assay for Enhancers of SMN2 Splice Variant Expression; note: nearly all actives have a fitted effect of over 55% in size
Conditions: HEK293 SMN2-luciferase splicing reporter, luminescence, 30-36 h; series mostly up to 46.1 µM
Hit rate of the full screen: of about 210,000 compounds, about 5,900 (2.8%) were called active. Another 5% or so got no clear call; they are omitted. Calls come from the whole dose curve; as a rule, active = well fitted activation curve with a large enough effect; inconclusive = small, poorly fitted or top-dose-only effect; inactive = no such curve, though single readings can be large or run the other way. This is one part of a sample in which actives are shown more often than they occur.
// classify into active, inactive

-- ask Look up the recorded call for O=C(Cn1ncc2c3ccccc3n(Cc3ccccc3)c2c1=O)NCc1ccccn1 in this test.
-- reply inactive

-- ask And the next one, Cc1ccc(C)c(Nc2nnc(-c3ccc(C)c(S(=O)(=O)N4CCCCC4)c3)c3ccccc23)c1 ?
-- reply inactive

-- ask Entry COc1cccc(C(=O)NNC(=O)c2ccccc2Br)c1 please
-- reply inactive

-- ask Could you do the same for COc1cccc(C(=O)Nc2cc3c(cc2Br)OCCCO3)c1 , please?
-- reply active

-- ask Also COc1cccc(OC)c1C(=O)Nc1ccc(N2CCCCC2)cc1 ?
-- reply inactive

-- ask Continue with CCOC(=O)c1ccc(N2C(=O)c3[nH]nc(-c4ccccc4)c3C2c2ccc(C(C)C)cc2)cc1 (stereo unspecified)
-- reply inactive

-- ask What about CCOc1ccc(CNC(=O)c2cccc(Nc3nc4ccccc4n4nnnc34)c2)cc1OC ?
-- reply inactive

-- ask Proceed to O=C(NCc1cccs1)c1ccc2c(c1)ncn2C1CCCC1
-- reply inactive

-- ask Consider next the compound CCC1CCCCN1Cc1c(O)ccc2c(=O)c(Oc3ccccc3Cl)c(C(F)(F)F)oc12 (stereo unspecified) in the same way.
-- reply inactive

-- ask Cool, now Cc1nc2cc(NCc3cccs3)ccc2n1C
-- reply active

-- ask Repeat for the following compound: Cn1ncc(Br)c1C(=O)NCc1cccs1
-- reply inactive

----------
Test: qHTS Assay for Enhancers of SMN2 Splice Variant Expression; note: nearly all actives have a fitted effect of over 55% in size
Conditions: HEK293 SMN2-luciferase splicing reporter, luminescence, 30-36 h; series mostly up to 46.1 µM
Among all 210,000 compounds or so, about 5,900 (2.8%) were called active. About 5% were inconclusive and are not listed. Calls follow the shape of the dose curve; as a rule, active = well fitted activation curve with a large enough effect; inconclusive = small, poorly fitted or top-dose-only effect; inactive = no such curve, though single readings can be large or run the other way. The full list was thinned out, with actives kept by preference.
Log the outcome using a class from Y = active, N = inactive

-- ask Could you please tell me the result logged for CCOc1ccc(S(=O)(=O)c2cn(Cc3ccc(OC)cc3)c3ccc(F)cc3c2=O)cc1 in this assay?
-- reply N

-- ask Now consider Cc1ccc(S(=O)(=O)NCC(=O)N(CC(=O)NC(C)(C)C)Cc2cccs2)cc1 and answer again.
-- reply N

-- ask Same read-out for Cc1cc2c(=O)n(C)c(SCC(=O)c3cc4ccccc4o3)nc2s1 ?
-- reply N

-- ask Please give the result for CCCOc1ccc(CNC(=O)C2CCN(c3nn4c(=O)cc(C)nc4s3)CC2)cc1 too.
-- reply N

-- ask Now consider CC(C)c1ccc(Nc2nnc(SCC(=O)c3nnc(-c4ccccc4)o3)s2)cc1 .
-- reply Y

-- ask Repeat for the following compound: Cc1ccc(Nc2nnc(SCC(=O)c3cc4ccccc4o3)s2)cc1C
-- reply Y

-- ask Next compound up: O=C(CSc1oc(-c2ccco2)nc1S(=O)(=O)c1ccc(Cl)cc1)c1ccccc1
-- reply N

-- ask Query CCOC(=O)c1ccccc1NC(=O)c1nn(-c2ccc(OC)c(Cl)c2)c(=O)c2c1c1ccccc1n2C next
-- reply N

-- ask Queued: CCn1cc(C(=O)NCc2ccccc2)c(=O)c2cc(S(=O)(=O)N3CCCCC3)ccc21
-- reply N

-- ask Another: O=C(CSc1nnc(Nc2ccccc2)s1)Nc1cccnc1Cl
-- reply N

----------
Assay: qHTS Assay for Enhancers of SMN2 Splice Variant Expression; note: nearly all actives have a fitted effect of over 55% in size
Settings: HEK293 SMN2-luciferase splicing reporter, luminescence, 30-36 h; series mostly up to 46.1 µM
The whole screen tested about 210,000 compounds, of which about 5,900 (2.8%) were called active. About 5% were inconclusive and are not listed. Calls come from the whole dose curve; as a rule, active = well fitted activation curve with a large enough effect; inconclusive = small, poorly fitted or top-dose-only effect; inactive = no such curve, though single readings can be large or run the other way. This excerpt belongs to a sample that is enriched for actives.
Choose the fitting class; nothing outside active, inactive is accepted.

-- ask Answer briefly: the call reported for O=C(Nc1nc2ccc(S(=O)(=O)N3CCCC3)cc2s1)C1CCCO1 (stereo not drawn) in this assay.
-- reply inactive

-- ask Then this compound: COc1ccc(NC(=O)C(=O)NCc2ccco2)cc1
-- reply inactive

-- ask Same for COc1ccccc1NC(=O)c1oc2ccccc2c1NC(=O)C(C)C
-- reply inactive

-- ask Lookup COc1ccc(C(=O)NCc2cn3ccccc3n2)cc1
-- reply inactive

-- ask Same question, Cc1ccc(OCC(=O)Nc2ccc(S(=O)(=O)Nc3ccccn3)cc2)cc1 this time
-- reply inactive

-- ask Fc1ccc(CSc2nnc(-c3cc4c(s3)-c3ccccc3CC4)o2)cc1 ?
-- reply inactive

-- ask Would you mind doing CCOC(=O)c1cc2c(=O)n3ccccc3nc2n(CC2CCCO2)c1=NC(=O)c1ccccc1Br (stereo not drawn) as well?
-- reply inactive

-- ask Do the same for COc1cccc2cc(-c3nc(Cl)c4c5c(sc4n3)CC(C)CC5)c(=O)oc12 (stereo not drawn) please
-- reply inactive

-- ask Also Cc1cccc2c1-c1sc(C(=O)Nc3ccc(F)cc3F)cc1CO2 , if possible.
-- reply inactive

-- ask And then COc1ccc(-c2noc(CSc3ccc(C)cc3)n2)cc1 , what is it?
-- reply inactive

-- ask Repeat for the following compound: COc1ccc(-c2nnco2)cc1OC
-- reply inactive

-- ask Proceed to COc1cccc(C(=O)NC2=NC(c3ccc(N(C)C)cc3)CC(=O)N2)c1 (stereo not drawn)
-- reply inactive

-- ask Then this compound: O=Cc1ccc(OCc2cn3ccccc3n2)cc1
-- reply active

-- ask What do you have for Cc1cccc(-c2nnc(SCC(=O)N3CCCc4ccccc43)o2)c1 ?
-- reply inactive

-- ask Try this compound too: COc1ccc(-c2noc(-c3cccc(OC)c3OC)n2)cc1OC
-- reply active

-- ask Next up: COc1ccc(-c2nc(-c3ccccc3)no2)c(OC)c1
-- reply active

-- ask Param item: COc1ccc(NC(=O)CSC2=Nc3ccccc3C3=NC(CC(=O)NCc4ccccc4OC)C(=O)N23)cc1Cl (stereo not drawn)
-- reply inactive

-- ask Please give the result for Cc1cc([N+](=O)[O-])ccc1NC(=O)C1CCCO1 (stereo not drawn) too.
-- reply inactive

-- ask Same for N#Cc1c(NC(=O)C2CCCO2)sc2c1CCCCC2 (stereo not drawn)
-- reply active

-- ask Another compound to check: O=C(Cn1c(=O)n(-c2ccc(F)cc2)c(=O)c2sc3ccccc3c21)NC1CCCC1
-- reply inactive

-- ask Continue with COc1ccc(CNC(=O)Cn2nnc(-c3ccccc3F)n2)cc1
-- reply inactive

-- ask Then this compound: COc1ccc(NC(=O)CNC(=O)Cn2ccc3ccccc3c2=O)c(OC)c1
-- reply inactive

-- ask Now this one: Cc1cc(C)c2nc(NC(=O)C3CCCO3)sc2c1 (stereo not drawn)
-- reply active

----------
Test: qHTS Assay for Enhancers of SMN2 Splice Variant Expression; note: nearly all actives have a fitted effect of over 55% in size
Details: HEK293 SMN2-luciferase splicing reporter, luminescence, 30-36 h; series mostly up to 46.1 µM
From the text: NIH Chemical Genomics Center [NCGC] NIH Molecular Libraries Probe Production centers Network [MLPCN] MLPCN Grant: R03 MH084179-01 Assay Submitter (PI): Elliot Androphy NCGC Assay Overview: Spinal muscular atrophy (SMA) is caused by insufficient levels of the survival motor neuron protein SMN. The SMN locus on chromosome 5q13 contains two inverted copies of SMN called SMN1 and SMN2 which are 99% identical at the amino acid level. […]
In all, about 210,000 compounds went through this assay and about 5,900 (2.8%) were called active. About 5% were inconclusive and are not listed. Calls follow the shape of the dose curve; as a rule, active = well fitted activation curve with a large enough effect; inconclusive = small, poorly fitted or top-dose-only effect; inactive = no such curve, though single readings can be large or run the other way. Many of the other results were omitted from the sample, so actives are more common in it than they were.
Choose one outcome from this list and give only that: active, inactive

-- ask GET /call?item= O=C(Nc1ccn(Cc2ccccc2)n1)c1cccc(F)c1 returns the recorded outcome of this test.
-- reply active

-- ask // next record O=C(OCc1ccc([N+](=O)[O-])cc1)c1ccccn1
-- reply inactive

-- ask How about Cc1ccc(C(=O)NC2CCN(C(=O)N3CCOCC3)CC2)cc1 ?
-- reply inactive

-- ask What about Cc1ccc(NC(=O)CN2C(=O)C(c3ccc(F)cc3)=NC23CCCCCC3)c(C)c1 ?
-- reply inactive

-- ask Thanks! And COc1ccc(-c2nc(CN3CCC(C(=O)NCCN(CC(C)C)CC(C)C)CC3)c(C)o2)cc1OC ?
-- reply inactive

-- ask Also need O=C(Nc1ccn(Cc2ccccc2)n1)c1n[nH]c([N+](=O)[O-])c1Cl , thanks.
-- reply active

-- ask Check O=C1CC(c2nnc(Cc3ccc(Cl)cc3)o2)CN1c1ccccc1 (stereo not drawn) too.
-- reply inactive

-- ask Would you mind doing CC(=O)Nc1ccn(Cc2c(F)cccc2Cl)n1 as well?
-- reply inactive

-- ask Could you do the same for CCOc1ccccc1C(=O)NC1(C(F)(F)F)NC(=O)N(CCc2ccc(OC)c(OC)c2)C1=O (stereo not drawn) , please?
-- reply inactive

-- ask Consider next the molecule Cc1cc(C)c2oc(C(=O)Nc3ccc(S(=O)(=O)N4CCCCCC4)cc3)cc(=O)c2c1 in the same way.
-- reply inactive

-- ask Please answer likewise for Cc1ccc(-c2nnc3c4ccccc4c(C)nn23)cc1NC(=O)c1cccc(Br)c1
-- reply inactive

-- ask Ok, now CCCC(=O)Nc1ccc2oc(-c3ccc(O)c(Br)c3)nc2c1
-- reply active

-- ask Input O=C(NCc1ccccn1)Nc1ccc(F)cc1
-- reply inactive

-- ask Also, CCn1c(SCc2ccccc2)nc2c(c1=O)SCC2 please.
-- reply inactive

-- ask What about this molecule? c1ccc(CN=C2Nc3ccccc3CS2)nc1
-- reply active

-- ask And the next one, CCCCCC(=O)Nc1ccc2oc(-c3ccncc3)nc2c1 ?
-- reply inactive

-- ask Request: CC(C)NC(=O)c1nn(-c2ccccc2F)nc1CO
-- reply inactive

-- ask Next record, please: Cc1ccc(N2CC(c3nnc(Cc4ccccc4Cl)o3)CC2=O)cc1 (stereo not drawn)
-- reply inactive

-- ask Next molecule: Cc1ccccc1CNC(=O)Cn1c(C)c2cnn(-c3ccccc3)c(=O)c2c1C
-- reply inactive

-- ask Moving on to Cn1cc([N+](=O)[O-])c(C(=O)Nc2cnn(Cc3ccc(F)cc3)c2)n1
-- reply inactive

-- ask # repeat for N/C(=N\OC(=O)Cc1ccc([N+](=O)[O-])cc1)c1ccccn1
-- reply inactive

-- ask Lookup CS(=O)(=O)n1nc(-c2ccccc2)nc1NCc1ccco1
-- reply inactive

-- ask And what about the molecule COc1ccccc1Nc1c2c(nc3ccc(NC(=O)/C=C/c4cc(OC)c(OC)c(OC)c4)cc13)CCCC2 ?
-- reply inactive
